- procedureDetails: Therapeutic index, ratio of CC50 for PBMC to IC50 for HIV1 TEK1
- condition: read-out: Ratio CC50/IC50

# structureSmiles, boundSign, selectivity ratio
rows = [
    ("O=C(/C=C(\\O)P(=O)(O)O)c1cn(Cc2ccccc2)c(=O)n(Cc2ccccc2)c1=O", ">", 50),
    ("O=C(/C=C(\\O)P(=O)(O)O)c1cc(OCc2ccccc2)cc(OCc2ccccc2)c1", "=", 5.8),
]

====

- procedureDetails: Inhibition of HIV integrase 3'-processing activity by magnesium chloride-based assay
- Design: species or system Human immunodeficiency virus
testReadout: IC50

# structureSmiles, testReadout, endpointValue
data = [
    ("O=C(/C=C(\\O)P(=O)(O)O)c1cn(Cc2ccccc2)c(=O)n(Cc2ccccc2)c1=O", "IC50", "> 333 µM"),
]

====

- procedureDetails: Therapeutic index, ratio of CC50 for PBMC to IC50 for HIV1 NL4-3
- condition: read-out: Ratio CC50/IC50
Reported selectivity ratio values for the following compounds.

# structureSmiles, boundSign, selectivity ratio
data = [
    ("O=C(/C=C(\\O)P(=O)(O)O)c1cc(OCc2ccccc2)cc(OCc2ccccc2)c1", "=", 4),
    ("O=C(/C=C(\\O)P(=O)(O)O)c1cn(Cc2ccccc2)c(=O)n(Cc2ccccc2)c1=O", ">", 62),
]

Cited source: ChEMBL document CHEMBL1148834
